Taken from PubChem BioAssay (NCATS).

Experiment: Primary qHTS for small molecule stabilizers of the endoplasmic reticulum resident proteome: Secreted ER Calcium Modulated Protein (SERCaMP) assay (AID 1508630)
Settings: SH-SY5Y GLuc-SERCaMP (Gaussia luciferase released on ER calcium loss) secretion, thapsigargin, luminescence; series mostly up to 38.4 µM
Records with an inconclusive call do not appear. Activity calls are given as the source filed them. Calls come from the whole dose curve; as a rule, active = well fitted inhibition curve with a large enough effect; inconclusive = small, poorly fitted or top-dose-only effect; inactive = no such curve, though single readings can be large or run the other way.
Outcome field: choose from True for active, False for inactive

| COMPOUND | CATEGORY LABEL |
| --- | --- |
| COCCNc1ncnc2ccc(-c3cccc(NS(C)(=O)=O)c3)cc12 | False |
| Cc1nc(-c2coc3c(O)c(O)ccc3c2=O)cs1 | False |
| COc1ccccc1CN1CC[C@@]2(CCCN(S(C)(=O)=O)C2)C1 | False |
| Cc1cn2c(=O)c3ccccc3nc2n2c(=O)c3ccccc3nc12 | False |
| CNc1cc(-c2ccccc2C(F)(F)F)ncn1 | False |
| COc1ccc(Oc2ncc3nc(CCc4ccccc4)c(=O)n(C[C@H]4CCCO4)c3n2)cc1 | True |

Asked: Hi team, can someone confirm the assay call for "O=C(Nc1ccccc1)N1CCC2(CC1)CCN(C(=O)c1cnccn1)CC2" ?
Given back: False

Asked: Hi team, can someone confirm the assay call for "O=C(Oc1ccccc1)N1CCC2(CCCN(c3ccccc3)C2)CC1" ?
Given back: False

Asked: Hi team, can someone confirm the assay call for C[C@@H](C1[C@@H](O)CC2C3C=CC4C[C@@H](O)CC[C@]4(C)[C@H]3CC[C@@]21C)[C@@H]1CCCCN1 (stereo not given in full) ?
Given back: False

Asked: Hi team, can someone confirm the assay call for "Cc1nc2cnc(Oc3cccc(Cl)c3)nc2n(CCC#N)c1=O" ?
Given back: False

###

Test: qHTS to identify inhibitors of the type 1 interferon - major histocompatibility complex class I in skeletal muscle: primary screen against the NCATS Mechanism Interrogation Plate v5.0 (MIPE) Libary (AID 1347411); note: nearly all actives have a fitted effect of over 65% in size
Settings: iHSKM cells + IFN-b, HiBiT-tagged MHC-I luminescence, 24 h; series mostly up to 45.8 µM
Records with an inconclusive call do not appear. The source made the active and inactive calls. The call rests on the fitted dose curve; in most records, active means well fitted inhibition curve with a large enough effect; inconclusive means small, poorly fitted or top-dose-only effect; inactive means no such curve, though single readings can be large or run the other way.
Outcome field: choose from active, inactive

Asked: Hi team, can someone confirm the assay call for "Cc1cnc(NC(=O)c2cc(Oc3cnc(C(=O)N(C)C)nc3)c3cc(C)oc3c2)cn1" ?
Given back: inactive

Asked: Hi team, can someone confirm the assay call for "O=C(/C=C\n1cnc(-c2cc(C(F)(F)F)cc(C(F)(F)F)c2)n1)NNc1cnccn1" ?
Given back: active

Asked: Hi team, can someone confirm the assay call for OC1CCC(Oc2cccc3cnc(Nc4ccc5nc[nH]c5c4)nc23)CC1 (stereo not drawn) ?
Given back: active

###

Test system: ICS
Experiment: qHTS profiling for inhibitors of Plasmodium falciparum proliferation (AID 504749); note: nearly all actives have a fitted effect of over 60% in size
Details: P. falciparum in erythrocytes, SYBR Green DNA, 72 h; series mostly up to 28.7 µM
Results filed as inconclusive are left out. The source made the active and inactive calls. The call rests on the fitted dose curve; in most records, active means well fitted inhibition curve with a large enough effect; inconclusive means small, poorly fitted or top-dose-only effect; inactive means flat fitted curve, though single readings scatter.
Outcome field: choose from T for active, F for inactive

Some solved entries appear below for comparison.
| MOLECULE | CATEGORY LABEL |
| --- | --- |
| CO[C@H]1/C=C/O[C@@]2(C)Oc3c(C)c(O)c4c(O)c(c(/C=N\N5CCN(C6CCCC6)CC5)c(O)c4c3C2=O)NC(=O)/C(C)=C\C=C\[C@H](C)[C@H](O)[C@@H](C)[C@@H](O)[C@@H](C)[C@H](OC(C)=O)[C@@H]1C | T |
| N[C@H](Cc1ccc(O)c(O)c1)C(=O)O | F |
| CC(C)(C)[C@]1(O)CCN2CC3c4ccccc4CCc4cccc(c43)[C@@H]2C1 (some centres undefined) | T |

Shift focus to the following entry.
Asked: Hi team, can someone confirm the assay call for "CC(/C=C1\SC(=S)N(CC(=O)O)C1=O)=C\c1ccccc1" ?
Given back: F

###

Target: Glucocorticoid receptor (Homo sapiens) (UniProt P04150)
Sequence (P04150 whole entry, looked up): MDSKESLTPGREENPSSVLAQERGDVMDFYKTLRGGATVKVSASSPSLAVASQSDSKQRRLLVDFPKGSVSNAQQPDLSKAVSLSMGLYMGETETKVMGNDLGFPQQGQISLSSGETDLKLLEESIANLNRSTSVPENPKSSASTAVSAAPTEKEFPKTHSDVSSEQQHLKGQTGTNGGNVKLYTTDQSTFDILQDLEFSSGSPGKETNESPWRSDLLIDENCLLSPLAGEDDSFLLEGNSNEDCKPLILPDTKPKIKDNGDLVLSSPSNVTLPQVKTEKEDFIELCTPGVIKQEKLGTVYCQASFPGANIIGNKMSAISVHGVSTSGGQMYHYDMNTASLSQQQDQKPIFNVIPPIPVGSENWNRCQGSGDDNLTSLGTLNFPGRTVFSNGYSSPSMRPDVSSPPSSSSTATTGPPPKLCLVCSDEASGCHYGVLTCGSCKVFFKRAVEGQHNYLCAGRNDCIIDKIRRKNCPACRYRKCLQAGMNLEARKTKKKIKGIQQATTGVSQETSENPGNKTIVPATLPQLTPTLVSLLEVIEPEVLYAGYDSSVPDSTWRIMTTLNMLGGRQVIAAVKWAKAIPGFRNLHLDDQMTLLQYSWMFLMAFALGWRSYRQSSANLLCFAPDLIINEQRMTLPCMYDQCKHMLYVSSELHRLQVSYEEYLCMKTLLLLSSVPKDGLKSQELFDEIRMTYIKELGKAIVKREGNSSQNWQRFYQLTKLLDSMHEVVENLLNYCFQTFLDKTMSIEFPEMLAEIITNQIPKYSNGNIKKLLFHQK
Test: GR-GFP Redistribution (AID 450); note: potency is the fitted concentration of half-maximal effect
Conditions: U2OS GR-GFP nuclear translocation, laser cytometry, 2 h
The source made the active and inactive calls.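 The calls were made as follows: active = compounds whose dose series gives a full or clear partial fitted curve of increased nuclear translocation; inconclusive = weak partial curve or effect only at the top dose; inactive = no dose-dependent translocation response.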
# reported Potency; entries follow

| SMILES STRING | TEST SYSTEM | Potency |
| --- | --- | --- |
| Fc1ccc(Nc2ncncc2-c2ccccc2C(F)(F)F)cc1 | Glucocorticoid receptor (Homo sapiens) (UniProt P04150) | > 46 µM (inactive) |
| CN(C)c1ncc2nc(-c3ccc(F)cc3)c(=O)n(Cc3cccs3)c2n1 | Glucocorticoid receptor (Homo sapiens) (UniProt P04150) | > 9.22 µM (inactive) |
| COc1ccccc1-c1cncnc1Nc1ccc(F)cc1 | Glucocorticoid receptor (Homo sapiens) (UniProt P04150) | > 46 µM (inactive) |

Asked: Return Potency measured with Glucocorticoid receptor (Homo sapiens) (UniProt P04150) given this compound: "CCSC(N)=Nc1ccc(C(F)(F)F)cc1"
Given back: > 46 µM (inactive)

Asked: Return Potency measured with Glucocorticoid receptor (Homo sapiens) (UniProt P04150) given this compound: "COc1cccc(Nc2ncc3nc(CCc4ccccc4)c(=O)n(C)c3n2)c1"
Given back: > 9.22 µM (inactive)

Asked: Return Potency measured with Glucocorticoid receptor (Homo sapiens) (UniProt P04150) given this compound: "COCCn1c(=O)cnc2cnc(OC)nc21"
Given back: > 9.22 µM (inactive)

Asked: Return Potency measured with Glucocorticoid receptor (Homo sapiens) (UniProt P04150) given this compound: "CCNc1ncc2ncc(=O)n(Cc3cccs3)c2n1"
Given back: > 9.22 µM (inactive)

###

Test: G06 Cancer Cell Toxicity qHTS against the NCATS CANVASS Library (AID 1347368); note: nearly all actives have a fitted effect of over 60% in size
Details: G06 dog glioma cells, viability ATP luminescence, 72 h; series mostly up to 46.1 µM
Inconclusive results are not listed. Calls of active or inactive are those of the source. Calls come from the whole dose curve; as a rule, active = well fitted cell-killing curve with a large enough effect; inconclusive = small, poorly fitted or top-dose-only effect; inactive = flat fitted curve, though single readings scatter.
Outcome field: choose from active, inactive

Some solved entries appear below for comparison.
| SMILES STRING | CATEGORY LABEL |
| --- | --- |
| O=C(OC[C@H]1O[C@@H](OC(=O)c2cc(O)c(O)c(O)c2)[C@H](OC(=O)c2cc(O)c(O)c(O)c2)[C@@H](OC(=O)c2cc(O)c(O)c(O)c2)[C@@H]1OC(=O)c1cc(O)c(O)c(O)c1)c1cc(O)c(O)c(O)c1 | active |
| C=C[C@@](C)(O)CC[C@@H]1[C@@]2(C)CCCC(C)(C)[C@@H]2CC[C@@]1(C)O | inactive |

Shift focus to the following entry.
Asked: Hi team, can someone confirm the assay call for "C/C(=C\[C@H](C)C(=O)CCCC1CC(=O)NC(=O)C1)[C@@H]1OC(=O)/C=C/CC/C=C/[C@H](O)[C@@H](O)[C@@H]1C" ?
Given back: active

###

Test: J3T Cancer Cell Toxicity qHTS against the NCATS CANVASS Library (AID 1347371)
Conditions: J3T dog glioma viability, ATP luminescence, 72 h; series mostly up to 46.1 µM
Records with an inconclusive call do not appear. The source made the active and inactive calls. Calls come from the whole dose curve; as a rule, active = well fitted cell-killing curve with a large enough effect; inconclusive = small, poorly fitted or top-dose-only effect; inactive = flat fitted curve, though single readings scatter.
Outcome field: choose from True for active, False for inactive

Asked: Hi team, can someone confirm the assay call for "COc1cc2c(c(O)c1O)C(=O)c1c(coc1C)C2=O" ?
Given back: True

Asked: Hi team, can someone confirm the assay call for "COc1ccc(-c2oc3cc(OC)cc(OC)c3c(=O)c2O)cc1" ?
Given back: False

Asked: Hi team, can someone confirm the assay call for "O=Cc1ccc2n1C[C@]1(OC2)O[C@H](CO)[C@@H](O)[C@@H]1O" ?
Given back: False

Asked: Hi team, can someone confirm the assay call for "C/C=C(/C)c1cc(O)c(C)c2c1Oc1cc(O)cc(C)c1C(=O)O2" ?
Given back: False

Asked: Hi team, can someone confirm the assay call for "C=C(C)C(=O)O[C@H]1C[C@@]2(C)OC(=CC2=O)/C(C)=C\[C@H]2OC(=O)C(=C)[C@H]12" ?
Given back: True

###

Molecular target: Cytochrome P450 2D6 (Homo sapiens)
Assay: qHTS Assay for Inhibitors and Substrates of Cytochrome P450 2D6 (AID 891); note: potency is the fitted concentration of half-maximal effect; nearly all actives have a fitted effect of over 60% in size
Settings: recombinant CYP2D6, luciferin-ME EGE luminescence; series mostly up to 57.1 µM
Records with an inconclusive call do not appear. Activity calls are given as the source filed them. Calls follow the shape of the dose curve; as a rule, active = well fitted inhibition curve with a large enough effect; inconclusive = small, poorly fitted or top-dose-only effect; inactive = no such curve, though single readings can be large or run the other way.
# reported Potency; entries follow

| SMILES STRING | TEST SYSTEM | Potency |
| --- | --- | --- |
| Cc1cccc(CNc2ccnc(-c3cccnc3)n2)c1 | Cytochrome P450 2D6 (Homo sapiens) | 631 nM (active) |
| COc1ccccc1CN1CC[C@@]2(CCCN(S(C)(=O)=O)C2)C1 | Cytochrome P450 2D6 (Homo sapiens) | 316 nM (active) |
| COc1ccccc1CN1CC[C@@]2(CCCN(C(=O)c3cccn3C)C2)C1 | Cytochrome P450 2D6 (Homo sapiens) | 316 nM (active) |
| Cc1noc(C)c1C(=O)N1CCC[C@@]2(CCN(Cc3ccccc3)C2)C1 | Cytochrome P450 2D6 (Homo sapiens) | 7940 nM (active) |
| Cc1ccccc1-c1nccc(NCc2cccs2)n1 | Cytochrome P450 2D6 (Homo sapiens) | 2510 nM (active) |
| c1nc(N2CCNCC2)c2cc(-c3ccc4c(c3)OCO4)ccc2n1 | Cytochrome P450 2D6 (Homo sapiens) | 2510 nM (active) |

Asked: Potency lookup needed for "COc1ccccc1CNc1ncnc2ccc(-c3ccccc3CN(C)C)cc12" , thanks.
Given back: 2510 nM (active)
